target: HLA-A*02:01; experiment: IEDB peptide-MHC binding, purified MHC/competitive/radioactivity; bounds were set here for any values at or beyond the usual limits of such assays; conditions: source organism: Vaccinia virus WR
# if measured IC50 < 100 nM: 1.0  # else: 0.0

These recorded examples may help you get a feel for the data.
FINFFNLLA: 0.0
STVDVRNIVT: 0.0
FLTLLGIGCV: 1.0
KLFKRERDA: 0.0

Report whether reported IC50 is lower than 100 nM (strictly) for `VQLPKRGVRV`
0.0

Try `YLGHSAGFT` next.
0.0

###

molecular target: HLA-A*02:01; experiment: IEDB peptide-MHC binding, purified MHC/competitive/radioactivity; bounds were set here for any values at or beyond the usual limits of such assays; conditions: source organism: Vaccinia virus WR
measured.parameter: pIC50
Remember, pIC50 is on a log scale: it is -log10 of the molar concentration.

# annotated cases, reported pIC50 shown
ITLILSNKLL: 5.66
YINTHNEVGI: 5.78
VLALYSPPLI: 7.26
YLGIFKNNDV: 7.80
YLSGTDDEVI: 6.66
KIDKLRQIV: 5.81

Given `RTMPNESRV` , state its recorded pIC50.
5.82

Try `CAVIPFDDIV` next.
5.96

Try `KLTDSLSSQM` next.
6.03

###

target: HLA-A*02:01; assay: IEDB peptide-MHC binding, cellular MHC/competitive/fluorescence; bounds were set here for any values at or beyond the usual limits of such assays; conditions: source organism: Vaccinia virus WR
# if measured IC50 < 30 µM: t  # else: f

EVFHCMDIL: t
TAASPMLYQL: f
HIIIVALTI: t
STMEDRPST: f
LVQYRILPM: f

Report whether reported IC50 is lower than 30 µM (strictly) for `PIVISKALET`
t

Try `DTLVKSGLT` next.
f

Try `MQRISGSNI` next.
t

Try `GIRCVSNLDI` next.
f

Try `DIPTFNSLNT` next.
t

###

// values below are reported pIC50
biological target: HLA-A*02:03; test: IEDB peptide-MHC binding, cellular MHC/competitive/fluorescence; bounds were set here for any values at or beyond the usual limits of such assays; settings: source organism: SARS-CoV1
Remember, pIC50 is on a log scale: it is -log10 of the molar concentration.

# annotated cases, reported pIC50 shown
FLVLIMLII: 5.01
MLIIFWFSL: 4.88

Note: attention shifts to another entry.
Quick check: pIC50 on HLA-A*02:03, item `IMLIIFWFSL` ?
4.83

###

target: HLA-A*02:02; test: IEDB peptide-MHC binding, cellular MHC/competitive/fluorescence; bounds were set here for any values at or beyond the usual limits of such assays; details: source organism: Hepatitis B virus
pIC50: −log10 of the molar value.
Classification field: enter MET for pIC50 values not below 5, NOT MET for values below it.

These recorded examples may help you get a feel for the data.
RILTIPQSL: MET
CLRRFIIFL: MET
HQLDPAFRA: NOT MET

Quick check: does `FLFILLLCL` have pIC50 greater than or equal to 5?
MET

###

target: HLA-A*68:02; test: IEDB peptide-MHC binding, cellular MHC/competitive/fluorescence; bounds were set here for any values at or beyond the usual limits of such assays; conditions: source organism: Mammarenavirus brazilense
// values below are reported IC50
Give the value, in units of µM, as a plain number.

# annotated cases, reported IC50 shown
GLLEWIFRA: 53.1
LNISGYNYSL: 12.9
KCFGNTALA: 25.9

Note: attention shifts to another entry.
Given `ICFWSTLFFT` , state its recorded IC50.
47.6
